B1: RPAIN (parent)
chain: ISEYEKSLQFDEKCLSIMLAEWEA

Variants of: B1
Experiment: protein stability index of a GFP-peptide fusion (GPS, HEK-293T) (PSI 1-6); higher = more stable;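 also: lentivirally expressed fusions sorted by FACS into six bins by GFP to DsRed ratio, PSI derived from sequencing read proportions per bin multiplied by bin number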
Settings: c terminus: a fixed tail appended
Reported protein stability index values are given for each entry in this list.
observation_type: protein stability index

[[record]]
variant_description = "F10T"
reported_result = 3.01

[[record]]
variant_description = "I17D"
reported_result = 2.47

[[record]]
variant_description = "Y4N"
reported_result = 2.15

[[record]]
variant_description = "I17P"
reported_result = 3.53

[[record]]
variant_description = "E12H"
reported_result = 2.02

[[record]]
variant_description = "E23V"
reported_result = 3.22

[[record]]
variant_description = "W22F"
reported_result = 2.79

[[record]]
variant_description = "S16V"
reported_result = 1.88

[[record]]
variant_description = "E12M"
reported_result = 1.66

[[record]]
variant_description = "E12Y"
reported_result = 1.33

[[record]]
variant_description = "S2L"
reported_result = 2.1

[[record]]
variant_description = "M18L"
reported_result = 2.18

[[record]]
variant_description = "L8I"
reported_result = 2.79

[[record]]
variant_description = "K6D"
reported_result = 2.07

[[record]]
variant_description = "E23Y"
reported_result = 1.61

[[record]]
variant_description = "C14I"
reported_result = 2.16

[[record]]
variant_description = "L19R"
reported_result = 2.39

[[record]]
variant_description = "S16D"
reported_result = 2.08

[[record]]
variant_description = "L15T"
reported_result = 3.73

[[record]]
variant_description = "D11T"
reported_result = 1.87

[[record]]
variant_description = "C14W"
reported_result = 1.35

[[record]]
variant_description = "E5Y"
reported_result = 2.3

